All values here come from ChEMBL document CHEMBL1201862.

Measured IC50, listed per entry for reference.
Target: Sentrin-specific protease 7 (Homo sapiens, UniProt Q9BQF6);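 note: Luminescence-based dose-response confirmation of ultra-high-throughput screening hits, measuring inhibition of SENP7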
Sequence (Q9BQF6 whole entry): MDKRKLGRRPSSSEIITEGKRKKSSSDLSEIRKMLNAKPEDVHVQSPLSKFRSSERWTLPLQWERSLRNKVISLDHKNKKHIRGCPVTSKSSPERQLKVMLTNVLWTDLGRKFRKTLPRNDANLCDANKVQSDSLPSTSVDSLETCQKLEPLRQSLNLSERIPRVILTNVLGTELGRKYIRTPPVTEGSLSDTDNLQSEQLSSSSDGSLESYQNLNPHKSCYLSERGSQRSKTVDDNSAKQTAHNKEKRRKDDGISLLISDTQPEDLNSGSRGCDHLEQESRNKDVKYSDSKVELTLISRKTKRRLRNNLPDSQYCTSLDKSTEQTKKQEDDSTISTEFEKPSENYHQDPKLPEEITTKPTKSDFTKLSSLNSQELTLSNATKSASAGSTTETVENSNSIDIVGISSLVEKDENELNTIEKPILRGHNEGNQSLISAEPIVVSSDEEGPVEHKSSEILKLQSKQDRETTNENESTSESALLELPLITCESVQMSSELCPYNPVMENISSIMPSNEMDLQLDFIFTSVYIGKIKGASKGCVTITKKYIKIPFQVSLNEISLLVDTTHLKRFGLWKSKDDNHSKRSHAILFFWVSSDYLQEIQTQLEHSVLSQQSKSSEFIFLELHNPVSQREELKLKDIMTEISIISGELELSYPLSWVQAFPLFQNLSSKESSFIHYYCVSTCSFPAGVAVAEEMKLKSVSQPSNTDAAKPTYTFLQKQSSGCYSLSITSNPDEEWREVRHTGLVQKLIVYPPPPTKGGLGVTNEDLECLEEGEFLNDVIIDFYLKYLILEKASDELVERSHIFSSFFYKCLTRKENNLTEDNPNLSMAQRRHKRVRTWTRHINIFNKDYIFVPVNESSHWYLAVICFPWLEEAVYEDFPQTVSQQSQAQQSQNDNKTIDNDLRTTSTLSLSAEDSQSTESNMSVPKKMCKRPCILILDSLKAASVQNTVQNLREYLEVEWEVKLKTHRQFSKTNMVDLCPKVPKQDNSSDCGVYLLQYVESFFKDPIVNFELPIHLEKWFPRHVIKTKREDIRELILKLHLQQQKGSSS
Format: functional
Active and inactive are the calls of the source.

{"MOLECULE": "CCOC(=O)/C=C(\\C)N1N=C(c2ccccc2)CC1c1ccccc1 (centres undefined)", "IC50": "6.48 µM (active)"}
{"MOLECULE": "CC(=O)Nc1cccc(-c2csc(Nc3ccc(C)cn3)n2)c1", "IC50": "4.13 µM (active)"}

Challenge: Look at this molecule and give its reported IC50. O=C1/C(=C/N(C(=O)c2ccco2)c2ccc(Br)cc2)Sc2ccccc21
Response given: 13.9 µM (active)

Challenge: And Oc1nc(Nc2ccccc2)cc2ccccc12 ?
Response given: 0.75 µM (active)
